Test system: Escherichia coli
Conditions: Concentration 32 ug.mL-1;; ASSAY_TEST Inhibition of Bacterial Growth; detection method Absorption (OD600); MEDIA CAMHB; plate type 384well; NBS; CORNING #3640; time 18 hr
Description: Antibacterial activity against Escherichia coli ATCC 25922 (CO-ADD:GN_001); MIC in CAMBH media using NBS plates, by OD(600)
Measured potencies and affinities stand elsewhere.
Recorded Inhibition values for a group of compounds are listed next.
Please state the figure in %; there is no need to write the unit.

The examples below pair each entry with its known result.
CCC(Sc1nnc2c(=O)n(-c3ccc(C)c(C)c3)ccn12)C(=O)Nc1cc(OC)ccc1OC (stereo not drawn); -11.35
O=C(CSc1nnc2c3cc(-c4ccc(F)cc4)nn3ccn12)Nc1ccccc1C(F)(F)F; -13.58
CC(C)CCn1c(=O)c2sccc2n2c(=O)n(CC(=O)N(C)c3ccccc3)nc12; -10.35
O=c1c2sccc2n2c(=O)n(Cc3c(F)cccc3Cl)nc2n1Cc1cccs1; 0.39
Cc1ccc(-n2ccn3c(SCC(=O)Nc4ccc5c(c4)OCCO5)nnc3c2=O)cc1C; -5.98
O=S(=O)(c1ccc2nncn2c1)N(Cc1cccc(F)c1)c1ccc(F)c(F)c1; -6.8
CCOc1ccc(-n2ccn3c(SCC(=O)Nc4ccc(C)cc4)nnc3c2=O)cc1; 2.17
COc1ccc(-c2cc3c4nn(CC(=O)Nc5ccc(OC)cc5OC)c(=O)n4ccn3n2)cc1; -3.4
Cc1ccc(Cl)cc1NC(=O)CSc1nc2ccccc2n2c(C(C)C)nnc12; -1.5
Cc1cccc(CN(c2ccc(Cl)cc2)S(=O)(=O)c2cccn3c(C)nnc23)c1; 2.16

Entry CCc1nnc2c(SCC(=O)Nc3cccc(C(C)=O)c3)nc3ccccc3n12 has what Inhibition?
4.71

Entry Cc1ccc(NC(=O)Cn2nc3ccc(C(=O)NCc4ccccc4)cn3c2=O)c(Br)c1 has what Inhibition?
-9.76

Entry CCc1ccc(NC(=O)Cn2nc3cc(C)nc(Nc4ccc(C)c(F)c4)n3c2=O)cc1 has what Inhibition?
-1.11

Entry COc1cc(OC)c(NC(=O)Cn2nc3c(Sc4cccc(C)c4)nccn3c2=O)cc1Cl has what Inhibition?
-1.94

Entry CCc1nnc2c(S(=O)(=O)N(Cc3ccc(OC)c(F)c3)c3ccccc3)cccn12 has what Inhibition?
1.05

Entry CCCc1nnc2c(=O)n(CC(=O)N3CCCc4ccccc43)c3ccccc3n12 has what Inhibition?
-3.24

Entry COc1ccc(-c2cc3c4nnc(CCC(=O)NCc5cccs5)n4ccn3n2)cc1 has what Inhibition?
4.51

These entries and their values trace back to ChEMBL document CHEMBL4513146.
